# Target Or System: UniProtKB Q3SYC2
# Test Summary: MGAT SPA Assay
# Format: biochemical
# Experimental Setup: membranes from Sf9 cells expressing recombinant human MGAT2; 2-monooleoylglycerol and [3H]-oleoyl-CoA
Measurement Name: IC50 (nM)

// below: answered compounds
Compound | IC50, nM
Cc1ccc(C2=C(C#N)C(=O)NC(c3ccc(OCC(F)(F)F)cc3)(C(F)(F)F)C2)cc1 (centres unmarked) | 731
Cc1ccc(C2=C(C(=O)Nc3ccno3)C(=O)NC(c3ccc(OCCC(F)(F)F)cc3)(C(F)(F)F)C2)cc1 (centres unmarked) | 20
COc1ccc(C2=C(n3cnnn3)C(=O)NC(c3ccc(OCCCC(F)(F)F)cc3)(C(F)(F)F)C2)c(F)c1 (centres unmarked) | 93
Cc1ccc(C2=C(C(=O)Nc3ccc(F)cc3)C(=O)NC(c3ccc(Oc4ncccn4)cc3)(C(F)(F)F)C2)cc1 (centres unmarked) | 477
Cc1ccc(C2=C(c3nnn[nH]3)C(=O)NC(C)(c3ccc(C)cc3)C2)cc1 (centres unmarked) | 913
Cc1ccc(C2=C(c3nn[nH]n3)C(=O)NC(c3ccc(Br)cc3)(C(F)(F)F)C2)cc1 (centres unmarked) | 1300
Cc1ccc(C2=C(C(=O)Nc3nn[nH]n3)C(=O)NC(c3ccc(C4=CCCC4)cc3)(C(F)(F)F)C2)cc1 (centres unmarked) | 1870
CCCCCCCCNC(=O)C1(C)CC(c2ccc(C)cc2)=C(C(=O)Nc2ccc(OC)cc2)C(=O)N1 (centres unmarked) | 237

1: O=C1NC(c2ccc(OCCCC(F)(F)F)cc2)(C(F)(F)F)CC(c2ccc(Cl)cc2)=C1c1nn[nH]n1 (centres unmarked)
2: Cc1ccc(C2=C([N+](=O)[O-])C(=O)NC(c3ccc(OCCCC(F)(F)F)cc3)(C(F)(F)F)C2)cc1 (centres unmarked)
Which has the smaller recorded IC50, 1 or 2 ? Give the label under which the chosen entry appears.
1

* * *

# Target Or System: Human MGAT-2 (Homo sapiens (Human))
# Sequence (Q3SYC2 whole entry): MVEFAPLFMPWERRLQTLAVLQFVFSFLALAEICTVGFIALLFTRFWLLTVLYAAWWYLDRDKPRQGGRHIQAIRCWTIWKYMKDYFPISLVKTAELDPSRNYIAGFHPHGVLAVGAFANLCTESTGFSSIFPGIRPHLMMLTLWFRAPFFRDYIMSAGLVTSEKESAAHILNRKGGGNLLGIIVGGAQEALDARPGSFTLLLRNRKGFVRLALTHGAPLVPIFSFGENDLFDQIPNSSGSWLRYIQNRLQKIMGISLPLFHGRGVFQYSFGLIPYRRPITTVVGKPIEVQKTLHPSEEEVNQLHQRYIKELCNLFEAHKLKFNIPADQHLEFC
# Test Summary: MGAT SPA Assay;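 also: inhibition scaled between DMSO vehicle as full MGAT2 activity and membranes of uninfected Sf9 cells as blank, IC50 fitted by logistic curve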
# Type: biochemical
# Experimental Setup: membranes from Sf9 cells expressing recombinant human MGAT2; 2-monooleoylglycerol and [3H]-oleoyl-CoA
Measurement Name: IC50 (nM)

// below: answered molecules
Molecule | IC50 / nM
Cc1ccc(C2=C(NC(=O)c3cc(OCc4ccccc4)no3)C(=O)NC(c3ccc(OCCCC(F)(F)F)cc3)(C(F)(F)F)C2)cc1 (stereo not shown) | 36
Cc1ccc(C2=C(C(=O)Nc3ccc(C)c(F)c3)C(=O)NC(c3ccc(OCCCC(F)(F)F)cc3)(C(F)(F)F)C2)cc1 (stereo not shown) | 1460
Cc1ccc(C2=C(C#N)C(=O)NC(c3cccc(F)c3)(C(F)(F)F)C2)cc1 (stereo not shown) | 4570
Cc1ccc(C2=C(c3nnc(C(F)(F)F)o3)C(=O)NC(c3ccc(OCCCC(F)(F)F)cc3)(C(F)(F)F)C2)cc1 (stereo not shown) | 2720
CC1(c2ccc(N3CCOCC3)cc2)CC(c2ccc(N3CCOCC3)cc2)=C(C#N)C(=O)N1 (stereo not shown) | 1930

1: CCOc1ccc(C2=C(C#N)C(=O)NC(C)(c3ccc(OCC)cc3)C2)cc1 (stereo not shown)
2: N#CC1=C(c2cccc(C#N)c2)CC(c2ccc(OCCCC(F)(F)F)cc2)(C(F)(F)F)NC1=O (stereo not shown)
Which has the smaller recorded IC50, 1 or 2 ? Give the label under which the chosen entry appears.
1
